Sourced from PubChem BioAssay (NCI)

# System: SN12C renal
# protocol notes: NCI tumour cell line growth inhibition, 48 h
measured parameter: TGI

[in] Item under review: `C[C@]12CC[C@@H]3c4cc(OC(F)F)c(OS(N)(=O)=O)cc4CC[C@H]3[C@@H]1CC[C@@H]2O` . Reported TGI?
[out] 19.1 µM

[in] Ok, now N#Cc1c2c(c(N)oc1=O)C(c1ccccc1)CC(=O)N2 (centres undefined)
[out] > 100 µM

[in] Ok, now `Cc1cn(CCCCC2=NCCCN2)c(=O)[nH]c1=O`
[out] > 100 µM

[in] Ok, now CC(=O)NC1C(OCc2ccccc2)OC(CO)C(O)C1OC(C)C(=O)NC(C)C(=O)NC(CCC(=O)NCCCCNc1c2ccccc2nc2cccc([N+](=O)[O-])c12)C(N)=O (centres undefined)
[out] 0.313 µM

[in] Ok, now `Nc1nc(Nc2ccccc2SSc2ccccc2Nc2nc(N)nc(C(Cl)(Cl)Cl)n2)nc(C(Cl)(Cl)Cl)n1`
[out] 7.26 µM

[in] Ok, now O=C1CSC2(CC(/C=C/c3cccc([N+](=O)[O-])c3)=NN2c2cccc(S(=O)(=O)O)c2)N1c1nc2ccccc2s1 (centres undefined)
[out] 49.9 µM

[in] Ok, now `NC(=O)NNC(=O)NC12CC3CC(CC(C3)C1)C2`
[out] > 100 µM

[in] Ok, now O=c1[nH]cc(F)c(=O)n1C1OC(CO)C(O)C1O (centres undefined)
[out] > 100 µM

[in] Ok, now `O=c1[nH]nc(Cc2ccccc2)n1C1CCCC1`
[out] > 100 µM
